What KA × 10^4 (M^−1), coupling/binding constant KA=Kon/Koff was measured for each of the following?
system: IgG-Fc (Fc fragment of IgG preparation derived from human plasma); assay: Biacore 3000 surface plasmon resonance analysis of the affinity of the low-molecular-weight compound for IgG-Fc; conditions: IgG-Fc immobilized on sensor chip CM5; compound 25 μM to 100 μM in running buffer pH 7.4, 5% DMSO; 25° C.; 1:1 binding model fit

Task item: # return recorded KA × 10^4 (M^−1), coupling/binding constant KA=Kon/Koff for input O=C1N/C(=C\c2ccc(O)c(Br)c2)C(=O)N1Cc1ccc(Cl)cc1 [(9)]
Reply: 0.48 × 10^4 M^−1

Task item: # return recorded KA × 10^4 (M^−1), coupling/binding constant KA=Kon/Koff for input CN(c1ccc(O)cc1)c1nc(S(=O)(=O)c2ccccc2)c(Cl)s1 [(14)]
Reply: 0.16 × 10^4 M^−1

Task item: # return recorded KA × 10^4 (M^−1), coupling/binding constant KA=Kon/Koff for input O=C(CSc1nnc(SCc2cccc3ccccc23)s1)c1ccc(O)c(O)c1 [(5)]
Reply: 4.6 × 10^4 M^−1

Task item: # return recorded KA × 10^4 (M^−1), coupling/binding constant KA=Kon/Koff for input O=C1Sc2c(S(=O)(=O)Nc3ccc(O)cc3)cc(S(=O)(=O)Nc3ccc(O)cc3)c3cccc1c23 [(11)]
Reply: 0.37 × 10^4 M^−1

Task item: # return recorded KA × 10^4 (M^−1), coupling/binding constant KA=Kon/Koff for input Cc1ccc(C(=O)C(C)Sc2nnnn2-c2ccc(O)cc2)cc1 (stereo not shown) [(15)]
Reply: 0.12 × 10^4 M^−1

Task item: # return recorded KA × 10^4 (M^−1), coupling/binding constant KA=Kon/Koff for input CN(c1ccc(O)cc1)c1ncc([N+](=O)[O-])c(N(C)c2ccc(O)cc2)n1 [(7)]
Reply: 0.96 × 10^4 M^−1

Task item: # return recorded KA × 10^4 (M^−1), coupling/binding constant KA=Kon/Koff for input CC(C)(c1ccc(O)cc1)c1cccc(C(C)(C)c2ccc(O)cc2)c1 [(6)]
Reply: 2.9 × 10^4 M^−1

Task item: # return recorded KA × 10^4 (M^−1), coupling/binding constant KA=Kon/Koff for input CC(Sc1nnnn1-c1ccc(O)cc1)C(=O)c1ccc(F)c(F)c1 (stereo not shown) [(13)]
Reply: 0.17 × 10^4 M^−1

Task item: # return recorded KA × 10^4 (M^−1), coupling/binding constant KA=Kon/Koff for input Nc1ccc(Oc2nc(Oc3ccc(N)cc3)c(F)c(Oc3ccc(N)cc3)c2F)cc1 [(12)]
Reply: 0.2 × 10^4 M^−1

Task item: # return recorded KA × 10^4 (M^−1), coupling/binding constant KA=Kon/Koff for input Cc1cc(C(=O)CSc2nc(N)cc(N)n2)c(C)n1Cc1ccc2c(c1)OCO2 [(17)]
Reply: 0.05 × 10^4 M^−1

Task item: # return recorded KA × 10^4 (M^−1), coupling/binding constant KA=Kon/Koff for input Nc1cccc(Oc2cccc(Oc3cccc(N)c3)c2)c1 [(8)]
Reply: 0.95 × 10^4 M^−1

Task item: # return recorded KA × 10^4 (M^−1), coupling/binding constant KA=Kon/Koff for input O=C(CSc1nnc2sc3ccccc3n12)c1ccc(O)c(O)c1 [(4)]
Reply: 5.1 × 10^4 M^−1

Task item: # return recorded KA × 10^4 (M^−1), coupling/binding constant KA=Kon/Koff for input O=c1cc(CSc2ncnc3c2cnn3-c2ccccc2)c2cc(O)c(O)cc2o1 [compound (2)]
Reply: 13 × 10^4 M^−1

Task item: # return recorded KA × 10^4 (M^−1), coupling/binding constant KA=Kon/Koff for input O=C(CSc1ncnc2c1cnn2-c1ccccc1)c1ccc(O)c(O)c1 [(3)]
Reply: 5.1 × 10^4 M^−1

Task item: # return recorded KA × 10^4 (M^−1), coupling/binding constant KA=Kon/Koff for input Oc1ccc(-c2csc(COc3ccccc3)n2)cc1O [(10)]
Reply: 0.4 × 10^4 M^−1

Task item: # return recorded KA × 10^4 (M^−1), coupling/binding constant KA=Kon/Koff for input Cc1ccc(OCc2nc(CSc3nc(N)cc(N)n3)cs2)cc1 [(16)]
Reply: 0.06 × 10^4 M^−1
